# credit: patent US20240376189A1

Biological target: T1, human C5a (human, UniProt P01031 678-751, biotinylated in the U937/C5aR ligand blocking assay (site not stated))
T1 construct: also called human antigen; huC5a
T1 sequence: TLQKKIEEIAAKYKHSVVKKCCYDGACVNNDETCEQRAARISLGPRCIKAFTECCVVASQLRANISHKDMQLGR
Test: SPR, scFv captured via anti-c-myc/anti-His, 5 nM human antigen as analyte, 1:1 fit
Quantity kind: koff

For orientation, consider the following solved cases.
{"Binder": "18D3 (scFv, V domains shown, Combination mutant scFv) VH: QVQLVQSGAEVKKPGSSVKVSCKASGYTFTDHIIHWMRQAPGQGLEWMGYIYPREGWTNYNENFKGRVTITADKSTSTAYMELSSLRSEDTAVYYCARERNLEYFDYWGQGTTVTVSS VL: DIVLTQSPASLAVSPGQRATITCKASQSVDYEGDNYMNWYQQKPGQPPKLLIYATSNLDSGVPARFSGSGSGTDFTLTINPVEAEDTANYYCQQSVEDPHTFGGGTKVEIK", "Quantity kind": "koff", "Result value": "2.98e-05 s⁻¹"}
{"Binder": "5G11 (scFv, V domains shown, Combination mutant scFv) VH: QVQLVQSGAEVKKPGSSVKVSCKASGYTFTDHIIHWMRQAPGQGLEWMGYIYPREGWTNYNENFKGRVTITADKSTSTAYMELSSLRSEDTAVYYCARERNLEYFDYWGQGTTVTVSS VL: DIVLTQSPASLAVSPGQRATITCKASQSVDYEGFNYMNWYQQKPGQPPKLLIYAASNLDSGVPARFSGSGSGTDFTLTINPVEAEDTANYYCQQSLEDPHTFGGGTKVEIK", "Quantity kind": "koff", "Result value": "< 1e-05 s⁻¹"}
{"Binder": "8C1 (scFv, V domains shown, Combination mutant scFv) VH: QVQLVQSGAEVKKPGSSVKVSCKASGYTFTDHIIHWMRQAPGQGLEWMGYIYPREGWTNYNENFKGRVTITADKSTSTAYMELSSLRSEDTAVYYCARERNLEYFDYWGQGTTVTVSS VL: DIVLTQSPASLAVSPGQRATITCKASQSVDFEGFNYMNWYQQKPGQPPKLLIYAASNLDSGVPARFSGSGSGTDFTLTINPVEAEDTANYYCQQSLEDPHTFGGGTKVEIK", "Quantity kind": "koff", "Result value": "< 1e-05 s⁻¹"}

// next entry
Q. Given the entry 13B9 (scFv, V domains shown, Combination mutant scFv) VH: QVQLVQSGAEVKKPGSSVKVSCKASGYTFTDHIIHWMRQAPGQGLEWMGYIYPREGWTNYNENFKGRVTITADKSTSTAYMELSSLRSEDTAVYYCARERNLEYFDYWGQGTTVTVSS VL: DIVLTQSPASLAVSPGQRATITCKASQSVDFEGFNYMNWYQQKPGQPPKLLIYAASNLDSGVPARFSGSGSGTDFTLTINPVEAEDTANYYCQQSNEDPHTFGGGTKVEIK , report its measured koff.
A. 2.2e-05 s⁻¹
